System: Hepatotoxicity
Experiment: Human drug-induced liver injury (DILI) modelling dataset from Ekins et al
valueKind: Hepatotoxicity

Below, each entry is followed by its recorded Hepatotoxicity result.
| compound | Hepatotoxicity |
| --- | --- |
| CC1=C(C(=O)O)N2C(=O)[C@@H](NC(=O)[C@H](N)c3ccc(O)cc3)[C@H]2SC1 [CEFADROXIL] | DILI positive (test set) |
| CC1(COc2ccc(CC3SC(=O)NC3=O)cc2)CCCCC1 (configuration not stated) [CIGLITAZONE] | DILI positive (test set) |
| CCCCc1ncc(/C=C(\Cc2cccs2)C(=O)O)n1Cc1ccc(C(=O)O)cc1 [EPROSARTAN] | DILI negative (test set) |
| CC[C@@]1(O)C[C@H](O[C@H]2C[C@H](N(C)C)[C@H](O[C@H]3C[C@H](O)[C@H](O[C@H]4CCC(=O)[C@H](C)O4)[C@H](C)O3)[C@H](C)O2)c2c(cc3c(c2O)C(=O)c2c(O)cccc2C3=O)[C@H]1C(=O)OC.Cl [ACLARUBICIN HYDROCHLORIDE] | DILI negative (test set) |
| Clc1ccc(CCC(Cn2ccnc2)Sc2c(Cl)cccc2Cl)cc1.O=[N+]([O-])O (configuration not stated) [BUTOCONAZOLE NITRATE] | DILI negative (test set) |
| c1ccc2c(c1)Nc1ccccc1S2 [PHENOTHIAZINE] | DILI positive (test set) |

Hi there! I need Hepatotoxicity for each item below, if you can.
1. CCCCCCCCCCCCCCCC(=O)OC/C=C(C)/C=C/C=C(C)/C=C/C1=C(C)CCCC1(C)C [VITAMIN A PALMITATE]
2. CCOC(=O)CN[C@@H](C(=O)N1CC[C@H]1C(=O)NCc1ccc(/C(N)=N\O)cc1)C1CCCCC1 [XIMELAGATRAN]
3. NCCCCCC(=O)O [AMINOCAPROIC ACID]

1. DILI positive (test set)
2. DILI positive (test set)
3. DILI negative (test set)

----------
System: Hepatotoxicity
Assay: Human drug-induced liver injury (DILI) modelling dataset from Ekins et al
valueKind: Hepatotoxicity

| compound | subjectOfTest | Hepatotoxicity |
| --- | --- | --- |
| CCOC(=O)C(C)(C)Oc1ccc(Cl)cc1 [CLOFIBRATE] | Hepatotoxicity | DILI positive (test set) |
| CC[C@H]1OC(=O)[C@H](C)[C@@H](O[C@H]2C[C@@](C)(OC)[C@@H](O)[C@H](C)O2)[C@H](C)[C@@H](O[C@@H]2O[C@H](C)C[C@H](N(C)C)[C@H]2O)[C@](C)(O)C[C@@H](C)CN(C)[C@H](C)[C@@H](O)[C@]1(C)O | Hepatotoxicity | DILI negative (test set) |
| O=C(O)CCc1nc(-c2ccccc2)c(-c2ccccc2)o1 | Hepatotoxicity | DILI positive (test set) |
| CO[C@@]1(NC(=O)Cc2cccs2)C(=O)N2C(C(=O)O)=C(COC(N)=O)CS[C@@H]21 | Hepatotoxicity | DILI positive (test set) |
| C#CCN(C)Cc1ccccc1 | Hepatotoxicity | DILI negative (test set) |

Quick request: Hepatotoxicity for each listed item, please.
1. NCCBr
2. CCN(CC)C(=O)/C(C#N)=C/c1cc(O)c(O)c([N+](=O)[O-])c1

DILI positive (test set)
DILI negative (test set)
